- study-target: JAK2 (Homo sapiens (Human), UniProt O60674)
- Sequence (O60674 whole entry, species assumed): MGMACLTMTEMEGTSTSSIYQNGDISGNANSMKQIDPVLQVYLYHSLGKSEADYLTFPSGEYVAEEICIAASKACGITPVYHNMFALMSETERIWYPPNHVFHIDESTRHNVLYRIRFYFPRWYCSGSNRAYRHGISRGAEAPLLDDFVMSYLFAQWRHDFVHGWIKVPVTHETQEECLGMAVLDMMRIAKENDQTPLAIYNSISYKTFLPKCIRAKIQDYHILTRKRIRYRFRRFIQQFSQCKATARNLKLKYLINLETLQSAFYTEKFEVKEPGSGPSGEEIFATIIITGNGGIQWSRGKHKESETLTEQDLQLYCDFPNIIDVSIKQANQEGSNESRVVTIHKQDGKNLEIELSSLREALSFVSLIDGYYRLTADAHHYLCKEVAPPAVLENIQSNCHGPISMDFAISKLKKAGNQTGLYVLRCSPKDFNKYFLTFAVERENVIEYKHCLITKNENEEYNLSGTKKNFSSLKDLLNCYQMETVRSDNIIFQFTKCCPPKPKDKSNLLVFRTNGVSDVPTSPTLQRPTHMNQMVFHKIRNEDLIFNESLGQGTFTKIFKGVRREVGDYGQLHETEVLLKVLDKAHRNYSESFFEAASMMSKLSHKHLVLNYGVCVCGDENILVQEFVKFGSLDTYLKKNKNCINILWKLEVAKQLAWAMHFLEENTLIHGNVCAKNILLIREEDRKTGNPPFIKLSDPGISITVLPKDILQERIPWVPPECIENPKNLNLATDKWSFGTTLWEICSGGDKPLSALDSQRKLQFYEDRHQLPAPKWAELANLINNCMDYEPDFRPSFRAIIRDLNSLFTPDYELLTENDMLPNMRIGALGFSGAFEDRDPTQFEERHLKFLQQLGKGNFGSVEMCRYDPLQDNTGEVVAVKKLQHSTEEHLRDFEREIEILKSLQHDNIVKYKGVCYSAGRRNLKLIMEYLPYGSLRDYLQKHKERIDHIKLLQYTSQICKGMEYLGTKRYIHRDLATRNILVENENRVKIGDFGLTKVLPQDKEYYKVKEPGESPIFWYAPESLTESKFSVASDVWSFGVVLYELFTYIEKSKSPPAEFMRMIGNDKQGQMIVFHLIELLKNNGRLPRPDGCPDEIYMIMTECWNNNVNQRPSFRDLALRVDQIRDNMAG
property-measured: pIC50
Just so you know, pIC50 here is -log10 of the concentration in molar units; reply with that number alone.

Solved entries (count: 2):
COc1cc(N2CCN(C)CC2)ccc1Nc1ncc(Cl)c(NCCc2c(F)cccc2Cl)n1: 5.76
COc1ccccc1CCNc1nc(Nc2ccc(N3CCN(C)CC3)cc2OC)ncc1Cl: 6.07

Here is the next item to consider.
Query (molecule): `COc1cc(N2CCN(C)CC2)ccc1Nc1ncc(Cl)c(NC[C@H]2CCCO2)n1` ; field requested: pIC50
5.97

FYI, the data here is from patent US10336734B2.
